- tested on: Helios (Homo sapiens, UniProt Q96SW2+Q9UKS7)
- Sequence (Q9UKS7 whole entry): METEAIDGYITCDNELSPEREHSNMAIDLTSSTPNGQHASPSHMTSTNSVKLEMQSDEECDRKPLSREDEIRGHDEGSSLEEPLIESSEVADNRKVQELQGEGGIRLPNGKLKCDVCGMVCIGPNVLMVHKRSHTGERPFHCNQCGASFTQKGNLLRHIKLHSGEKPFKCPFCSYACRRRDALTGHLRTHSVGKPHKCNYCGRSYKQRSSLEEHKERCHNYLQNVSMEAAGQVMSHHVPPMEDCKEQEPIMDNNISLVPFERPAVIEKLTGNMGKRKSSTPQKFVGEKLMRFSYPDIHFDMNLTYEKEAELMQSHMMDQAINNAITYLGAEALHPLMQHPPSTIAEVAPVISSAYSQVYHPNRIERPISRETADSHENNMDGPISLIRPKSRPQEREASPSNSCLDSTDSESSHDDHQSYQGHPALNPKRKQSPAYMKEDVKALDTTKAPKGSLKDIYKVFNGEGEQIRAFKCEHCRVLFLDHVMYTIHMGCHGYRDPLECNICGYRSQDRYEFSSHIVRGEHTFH
- Sequence (Q96SW2 whole entry): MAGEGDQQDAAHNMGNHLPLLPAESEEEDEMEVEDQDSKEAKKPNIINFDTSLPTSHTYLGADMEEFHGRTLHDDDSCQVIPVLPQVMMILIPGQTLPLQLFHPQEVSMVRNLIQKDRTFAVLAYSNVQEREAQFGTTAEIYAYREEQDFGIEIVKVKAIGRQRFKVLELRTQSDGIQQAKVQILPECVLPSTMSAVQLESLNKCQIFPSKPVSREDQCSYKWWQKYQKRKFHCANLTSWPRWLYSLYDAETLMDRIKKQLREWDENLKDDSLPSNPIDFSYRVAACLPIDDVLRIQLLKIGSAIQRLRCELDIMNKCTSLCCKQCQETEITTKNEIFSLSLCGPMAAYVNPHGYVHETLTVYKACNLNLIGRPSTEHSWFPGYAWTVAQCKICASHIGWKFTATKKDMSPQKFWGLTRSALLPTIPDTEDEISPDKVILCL
- Sequence (Q16531 whole entry partner): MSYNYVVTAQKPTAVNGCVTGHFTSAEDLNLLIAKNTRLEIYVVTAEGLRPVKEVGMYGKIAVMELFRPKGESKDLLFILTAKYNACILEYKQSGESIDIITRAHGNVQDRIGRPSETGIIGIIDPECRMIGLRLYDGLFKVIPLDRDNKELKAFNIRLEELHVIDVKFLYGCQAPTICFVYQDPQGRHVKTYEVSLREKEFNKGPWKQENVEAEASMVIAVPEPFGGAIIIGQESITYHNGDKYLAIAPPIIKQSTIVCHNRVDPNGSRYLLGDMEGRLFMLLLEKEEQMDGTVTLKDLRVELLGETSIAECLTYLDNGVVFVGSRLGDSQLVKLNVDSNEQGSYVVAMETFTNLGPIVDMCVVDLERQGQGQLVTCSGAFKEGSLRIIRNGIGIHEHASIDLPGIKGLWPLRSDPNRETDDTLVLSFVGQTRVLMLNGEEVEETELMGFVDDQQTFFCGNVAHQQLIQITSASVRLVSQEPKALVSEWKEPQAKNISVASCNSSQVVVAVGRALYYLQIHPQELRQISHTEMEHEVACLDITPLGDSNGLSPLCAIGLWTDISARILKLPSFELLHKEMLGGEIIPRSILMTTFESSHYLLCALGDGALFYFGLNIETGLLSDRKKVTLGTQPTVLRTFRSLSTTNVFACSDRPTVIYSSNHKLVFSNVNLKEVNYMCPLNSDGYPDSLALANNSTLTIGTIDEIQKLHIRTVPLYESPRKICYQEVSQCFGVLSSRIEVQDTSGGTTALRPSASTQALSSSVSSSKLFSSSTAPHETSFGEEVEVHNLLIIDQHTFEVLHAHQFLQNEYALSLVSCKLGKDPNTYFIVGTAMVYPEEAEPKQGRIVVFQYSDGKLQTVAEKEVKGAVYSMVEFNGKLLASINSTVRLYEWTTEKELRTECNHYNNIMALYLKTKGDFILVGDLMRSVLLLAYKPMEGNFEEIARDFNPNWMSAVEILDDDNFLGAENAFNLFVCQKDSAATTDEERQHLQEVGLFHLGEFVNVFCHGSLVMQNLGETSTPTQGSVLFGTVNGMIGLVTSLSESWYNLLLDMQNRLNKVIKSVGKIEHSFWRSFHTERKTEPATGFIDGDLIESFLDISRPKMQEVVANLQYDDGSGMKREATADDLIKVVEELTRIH
- assay details: Helios Human T Regulatory Cells Degradation Assay
- Type: cell-based
- Design: fluorescently labelled antibodies against Helios in 1× Permeabilization buffer; endogenous in cells; host or cells: cryopreserved human T regulatory cells
- condition details: cryopreserved human T regulatory cells, incubated 20 hours, Helios-APC antibody staining, flow cytometry; read-out: hTreg Helios DC50
measure name: DC50 (nM)
Express it in nM; write the number only.

The measured DC50 associated with CC1(O)CC2CN(Cc3ccnc(-c4ccc5c(c4)CN(C4CCC(=O)NC4=O)C5=O)c3)CC2C1 (stereo in doubt) reads 11.5

The measured DC50 associated with Cc1cnc(-c2ccc3c(c2)CN(C2CCC(=O)NC2=O)C3=O)cc1CN1CC2(CCC2)C1 (centres unmarked) reads 3.7

The measured DC50 associated with CC(O)C1CCN(Cc2ccnc(-c3ccc4c(c3)CN(C3CCC(=O)NC3=O)C4=O)c2)CC1 (centres unmarked) reads 1.4

The measured DC50 associated with O=C1CCC(N2Cc3cc(-c4nccc(CN5CCC(O)(c6ccccc6Cl)C5)c4F)ccc3C2=O)C(=O)N1 (centres unmarked) reads 172

The measured DC50 associated with CC(C)(O)[C@@H]1CCN(Cc2ccnc(-c3ccc4c(c3)CN(C3CCC(=O)NC3=O)C4=O)c2F)C1 (some centres unmarked) reads 10.4

The measured DC50 associated with Cc1ccc(C)c(C2(O)CCN(Cc3ccnc(-c4ccc5c(c4)CN(C4CCC(=O)NC4=O)C5=O)c3F)C2)c1 (centres unmarked) reads 1140

The measured DC50 associated with COc1c(CN2CCC(C3CC3)C2)ccnc1-c1ccc2c(c1)CN(C1CCC(=O)NC1=O)C2=O (centres unmarked) reads 0.4

The measured DC50 associated with COC(=O)N1CCC2(CN(Cc3ccnc(-c4ccc5c(c4)CN(C4CCC(=O)NC4=O)C5=O)c3F)C2)C1 (centres unmarked) reads 280

The measured DC50 associated with CC(C)OCC1CCN1Cc1ccnc(-c2ccc3c(c2)CN(C2CCC(=O)NC2=O)C3=O)c1 (centres unmarked) reads 2.6

The measured DC50 associated with CC1CC(O)CCN1Cc1ccnc(-c2ccc3c(c2)CN(C2CCC(=O)NC2=O)C3=O)c1F (single isomer, unassigned) reads 653

The measured DC50 associated with O=C1CCC(N2Cc3cc(-c4cc(CN5Cc6cnc(Cl)cc6C5)ccn4)ccc3C2=O)C(=O)N1 (centres unmarked) reads 4110

The measured DC50 associated with O=C1CCC(N2Cc3cc(-c4nccc(CN5CC6(CCC6)C5)c4F)ccc3C2=O)C(=O)N1 (centres unmarked) reads 3.4

The measured DC50 associated with O=C1CCC(N2Cc3cc(-c4cc(CN5CC[C@H](CO)C5)ccn4)ccc3C2=O)C(=O)N1 (some centres unmarked) reads 0.4

The measured DC50 associated with `CN(C(=O)c1ccccc1)C1CN(Cc2ccnc(-c3ccc4c(c3)CN([C@H]3CCC(=O)NC3=O)C4=O)c2)C1` reads 61.9

The measured DC50 associated with CC(C)(O)C1CCN(Cc2ccnc(-c3ccc4c(c3F)CN(C3CCC(=O)NC3=O)C4=O)c2F)CC1 (centres unmarked) reads 28

The measured DC50 associated with C[C@H]1[C@H](O)CN1Cc1ccnc(-c2ccc3c(c2)CN(C2CCC(=O)NC2=O)C3=O)c1F (some centres unmarked) reads 454
